# target_under_test: Cytochrome P450 1A2 (Homo sapiens) (UniProt P05177)
# Sequence (P05177 whole entry, looked up): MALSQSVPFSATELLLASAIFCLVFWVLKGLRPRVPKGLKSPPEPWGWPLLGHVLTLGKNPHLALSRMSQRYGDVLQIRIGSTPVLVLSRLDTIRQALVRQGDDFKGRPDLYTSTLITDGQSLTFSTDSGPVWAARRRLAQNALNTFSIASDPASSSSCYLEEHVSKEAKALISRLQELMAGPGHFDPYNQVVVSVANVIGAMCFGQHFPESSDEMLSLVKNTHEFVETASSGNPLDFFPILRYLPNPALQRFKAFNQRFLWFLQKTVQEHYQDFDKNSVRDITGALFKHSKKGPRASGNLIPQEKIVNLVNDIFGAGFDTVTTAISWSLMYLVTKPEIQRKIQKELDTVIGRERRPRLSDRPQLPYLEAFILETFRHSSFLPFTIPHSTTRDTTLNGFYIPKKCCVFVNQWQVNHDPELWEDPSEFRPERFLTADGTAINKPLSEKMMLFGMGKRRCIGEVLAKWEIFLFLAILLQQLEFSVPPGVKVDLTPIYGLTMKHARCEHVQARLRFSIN
# test_summary: Cytochrome panel assay with activity outcomes
# settings: recombinant CYP, pro-luciferin dealkylation, luminescence, p450-cyp1a2; series mostly up to 57.1 µM
In all, about 16,000 compounds went through this assay and about 5,700 (36%) were called active. Roughly 24% stayed inconclusive and do not appear here. Some of the results follow.
assay_readout: AC50

{"compound": "O=C(COc1ccccc1)Nc1ccc(-c2nnc(-c3ccco3)o2)cc1", "AC50": "inactive"}
{"compound": "N#Cc1cccc(-c2nccc(-n3ccnc3)n2)c1", "AC50": "200 nM (active)"}
{"compound": "COc1ccc(-c2ccc(N)[n+](CCCC(=O)O)n2)cc1", "AC50": "inactive"}
{"compound": "Cc1cc(Br)ccc1NCc1ccccn1", "AC50": "1120 nM (active)"}

Exercise: Give AC50 for CCC(=O)n1nc(-c2ccc(OC)cc2)nc1N
Solution: 2000 nM (active)

Exercise: Give AC50 for CN(C)CC[C@H](c1ccc(Br)cc1)c1ccccn1
Solution: inactive

Exercise: Give AC50 for O=C(COC(=O)COc1ccccc1)Nc1ccc(OC(F)(F)F)cc1
Solution: 20000 nM (active)

----------
# target_under_test: Cytochrome P450 1A2 (Homo sapiens) (UniProt P05177)
# test_summary: Cytochrome panel assay with activity outcomes
# settings: recombinant CYP, pro-luciferin dealkylation, luminescence, p450-cyp1a2; series mostly up to 57.1 µM
The whole screen tested about 16,000 compounds, of which about 5,700 (36%) were called active. Roughly 24% stayed inconclusive and do not appear here. The call rests on the fitted dose curve; in most records, active means well fitted curve in the direction sought with a large enough effect; inconclusive means small, poorly fitted or top-dose-only effect, or effect the other way; inactive means no such curve, though single readings can be large or run the other way. The list shows a part of the results.
Pick one: true (active), false (inactive)

Exercise: I would be grateful if you could indicate the recorded call for CN1[C@@H]2CC[C@H]1CC(OC(=O)c1c[nH]c3ccccc13)C2 (stereo partly specified) .
Solution: false

Exercise: I would be grateful if you could indicate the recorded call for CC(C)(C)CNC(CO)C12CC3CC(CC(C3)C1)C2 (stereo unspecified) .
Solution: false

Exercise: I would be grateful if you could indicate the recorded call for CS(=O)(=O)Nc1cccc(-c2ccc3ncnc(N4CCNCC4)c3c2)c1 .
Solution: true

Exercise: I would be grateful if you could indicate the recorded call for COc1cc(NC(=O)c2cc3nc(-c4ccccc4)cc(-c4ccccc4)n3n2)cc(OC)c1OC .
Solution: false

Exercise: I would be grateful if you could indicate the recorded call for CS(=O)(=O)Nc1cccc(-c2ccc3ncnc(NCCN4CCOCC4)c3c2)c1 .
Solution: true

Exercise: I would be grateful if you could indicate the recorded call for CCCC(=O)Nc1nc2n(n1)C(c1ccccc1)CC(=O)N2 (stereo unspecified) .
Solution: false

Exercise: I would be grateful if you could indicate the recorded call for C=CCNS(=O)(=O)c1cccc2cc(C(=O)O)c(O)cc12 .
Solution: true

Exercise: I would be grateful if you could indicate the recorded call for CS(=O)(=O)Nc1ccc(S(=O)(=O)N2CCOCC2)cc1 .
Solution: false

Exercise: I would be grateful if you could indicate the recorded call for CC(C)(C)Nc1nc(N2CCCC2)nc(N2CCCC2)n1 .
Solution: true

Exercise: I would be grateful if you could indicate the recorded call for CCNC(=S)N1CC(C)OC(C)C1 (stereo unspecified) .
Solution: false

Exercise: I would be grateful if you could indicate the recorded call for CC(=O)c1cnc2cc(C)nn2c1C .
Solution: true

----------
# target_under_test: Cytochrome P450 1A2 (Homo sapiens) (UniProt P05177)
# test_summary: Cytochrome panel assay with activity outcomes
# settings: recombinant CYP, pro-luciferin dealkylation, luminescence, p450-cyp1a2; series mostly up to 57.1 µM
The whole screen tested about 16,000 compounds, of which about 5,700 (36%) were called active. Inconclusive results (about 24%) are left out. Calls come from the whole dose curve; as a rule, active = well fitted curve in the direction sought with a large enough effect; inconclusive = small, poorly fitted or top-dose-only effect, or effect the other way; inactive = no such curve, though single readings can be large or run the other way. Some of the results follow.
Pick one: active, inactive

Exercise: I would be grateful if you could indicate the recorded call for CC1(C)OC(=O)N(Cc2ccco2)C1(C)O (stereo unspecified) .
Solution: inactive

Exercise: I would be grateful if you could indicate the recorded call for CC1=CC(=C2C(=O)c3ccccc3C2=O)C=C(C)N1Cc1ccco1 .
Solution: active

Exercise: I would be grateful if you could indicate the recorded call for Cc1cccc(NC(=S)Nc2ccc(Br)cc2)c1 .
Solution: active

Exercise: I would be grateful if you could indicate the recorded call for CCc1c(C)nc2ccc(Br)cc2c1Cl .
Solution: active

Exercise: I would be grateful if you could indicate the recorded call for C/C(=N\NC(=S)Nc1cccc(C)c1)c1ccccc1 .
Solution: active

Exercise: I would be grateful if you could indicate the recorded call for CC1=CC(=C2C(=O)c3ccccc3C2=O)C=C(C)O1 .
Solution: active

Exercise: I would be grateful if you could indicate the recorded call for COc1ccc(-n2c(=O)c(-c3ccccc3)nc3cnc(N4CCNCC4)nc32)cc1 .
Solution: active

Exercise: I would be grateful if you could indicate the recorded call for COc1cc(C(=O)Nc2cc(C(F)(F)F)ccc2Cl)cc(OC)c1OC .
Solution: active

Exercise: I would be grateful if you could indicate the recorded call for CN(C)S(=O)(=O)Oc1cccc(C(=O)Nc2ccccc2Cl)c1 .
Solution: active

Exercise: I would be grateful if you could indicate the recorded call for COc1cccc(C(=O)Nc2cc(C(F)(F)F)ccc2Cl)c1 .
Solution: active

Exercise: I would be grateful if you could indicate the recorded call for COc1ccc(C(=O)N2CCC3(CCN(Cc4cc(C(F)(F)F)cc(C(F)(F)F)c4)CC3)CC2)cc1 .
Solution: inactive

----------
# target_under_test: Cytochrome P450 1A2 (Homo sapiens) (UniProt P05177)
# test_summary: Cytochrome panel assay with activity outcomes; for activity, negative = inhibition: % is set by controls: 0 for no effect and ±100 for the full control effect
# settings: recombinant CYP, pro-luciferin dealkylation, luminescence, p450-cyp1a2; series mostly up to 57.1 µM
The campaign covered roughly 16,000 compounds. About 5,700 (36%) were called active. Inconclusive results (about 24%) are left out. The list shows a part of the results. Square brackets hold non-standard residues; d marks the D form. Peptide text beside a SMILES is read from it.
Assign activity, negative = inhibition to each entry below.

Exercise: Give activity, negative = inhibition for CC(=O)OC[C@H]1O[C@@H](O/N=C\[C@@H](C)[C@H](OCc2ccccc2)C(C)C)[C@H](OC(C)=O)[C@@H](OC(C)=O)[C@H]1OC(C)=O
Solution: -8.7% [at 11.4 µM] (inactive)

Exercise: Give activity, negative = inhibition for NCC(=O)N[C@H](CO)C(=O)O (H-Gly-[dS]-OH)
Solution: -8.79% [at 11.4 µM] (inactive)

Exercise: Give activity, negative = inhibition for Cc1ccc([C@@H](O)c2cnc(C)n2Cc2ccccc2)cc1
Solution: -10.8% [at 11.4 µM] (inactive)

Exercise: Give activity, negative = inhibition for CC(C)CO/N=C1/C[C@@H](O)[C@@H](O)[C@@H]2[C@@H]3C(=O)N(C[C@@H]4CCCO4)C(=O)[C@H]3CC[C@H]12
Solution: -4.99% [at 11.4 µM] (inactive)

----------
# target_under_test: Cytochrome P450 1A2 (Homo sapiens) (UniProt P05177)
# test_summary: Cytochrome panel assay with activity outcomes
# settings: recombinant CYP, pro-luciferin dealkylation, luminescence, p450-cyp1a2; series mostly up to 57.1 µM
Hit rate of the full screen: of about 16,000 compounds, about 5,700 (36%) were called active. Roughly 24% stayed inconclusive and do not appear here. The list shows a part of the results.
assay_readout: AC50

{"compound": "Cc1ccc(NC(=O)c2sc3ccccc3c2Cl)nc1", "AC50": "2.51 µM (active)"}
{"compound": "Cc1ccccc1Cn1nc(C)c(NC(=O)c2sc3ccccc3c2Cl)c1C", "AC50": "2.24 µM (active)"}
{"compound": "COc1cc(/C=C(\\C#N)C(=O)c2ccc(O)c(O)c2)cc(I)c1O", "AC50": "15.8 µM (active)"}
{"compound": "CC(=O)NCCNc1ncnc2ccc(-c3ccoc3)cc12", "AC50": "12.6 µM (active)"}
{"compound": "N#C/C(=C\\c1ccc(O)c(O)c1)C(=O)NCCCc1ccccc1", "AC50": "12.6 µM (active)"}
{"compound": "O=C(c1ccccc1Nc1ccc(SC(F)F)cc1)N1CCCCC1", "AC50": "14.1 µM (active)"}
{"compound": "COCCNc1ncnc2ccc(-c3ccc(N(C)C)cc3)cc12", "AC50": "0.251 µM (active)"}
{"compound": "COc1ncc2nc(-c3ccccc3)c(=O)n(C)c2n1", "AC50": "1.58 µM (active)"}

Exercise: Give AC50 for Cc1ccc(NC(=O)CCc2c(C)nc3ncnn3c2C)nc1
Solution: inactive

Exercise: Give AC50 for CC[C@H](NC(C)C)[C@H](O)c1ccc(O)c(O)c1
Solution: 12.6 µM (active)

Data credit: PubChem BioAssay AID1851
